Values compiled from patent US20220402935A1.

Measured pIC50 by item
# System Name: human XIAP_BIR3 domain purified protein (Homo sapiens)
# Sequence (P98170 252-356 limits assumed): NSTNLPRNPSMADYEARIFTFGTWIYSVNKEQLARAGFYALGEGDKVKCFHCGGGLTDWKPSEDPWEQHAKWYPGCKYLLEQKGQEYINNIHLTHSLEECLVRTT
pIC50: −log10 of the molar value.

Solved cases (4 shown):
Compound String	System Name	Endpoint Result
CN[C@@H](C)C(=O)N[C@H](C(=O)N1CCN(C(=O)c2c(C(=O)NCCOCCOCCOc3cc(CN4CCC(Oc5ccnc6ccsc56)CC4)on3)c3cc(F)c(F)cc3n2C)[C@@H](C)C1)C1CCCCC1	human XIAP_BIR3 domain purified protein (Homo sapiens)	5.52 to 6.52
CN[C@@H](C)C(=O)N[C@H](C(=O)N1CCN(C(=O)c2c(C)c3cc(F)ccc3n2CC(=O)N(C)CCOCCOCCOCCOc2cc(CN3CCC(Oc4ccnc5ccsc45)CC3)on2)CC1)C1CCCCC1	human XIAP_BIR3 domain purified protein (Homo sapiens)	4.52 to 5.52
CN[C@@H](C)C(=O)N[C@H](C(=O)N1CCN(C(=O)c2cc3c(OCCOCCOCCOc4cc(CN5CCC(Oc6ccnc7ccsc67)CC5)on4)c(F)c(F)cc3n2C)CC1)C1CCCCC1	human XIAP_BIR3 domain purified protein (Homo sapiens)	5.52 to 6.52
CN[C@@H](C)C(=O)N[C@H](C(=O)N1CCN(C(=O)c2cc3cc(F)c(F)cc3n2CC(=O)N2CCC[C@H]2COc2cc(CN3CCC(Oc4ccnc5ccsc45)CC3)on2)CC1)C1CCC(F)(F)CC1	human XIAP_BIR3 domain purified protein (Homo sapiens)	4.52 to 5.52

Q: Reported pIC50, compound C[C@@H]1CN(CC(=O)N2CCN(C(=O)c3cc4cc(F)c(F)cc4n3C)C[C@H]2C)[C@@H](COCCOCCOCCOCCOc2cc(CN3CCC(Oc4ccnc5ccsc45)CC3)on2)CN1 : ____
Result: 5.52 to 6.52

* * *

Catalogue of remaining binding at 1 µM readings, one per entry.
# System Name: IRAK-M (Homo sapiens)
# Sequence (Q9Y616 1-596): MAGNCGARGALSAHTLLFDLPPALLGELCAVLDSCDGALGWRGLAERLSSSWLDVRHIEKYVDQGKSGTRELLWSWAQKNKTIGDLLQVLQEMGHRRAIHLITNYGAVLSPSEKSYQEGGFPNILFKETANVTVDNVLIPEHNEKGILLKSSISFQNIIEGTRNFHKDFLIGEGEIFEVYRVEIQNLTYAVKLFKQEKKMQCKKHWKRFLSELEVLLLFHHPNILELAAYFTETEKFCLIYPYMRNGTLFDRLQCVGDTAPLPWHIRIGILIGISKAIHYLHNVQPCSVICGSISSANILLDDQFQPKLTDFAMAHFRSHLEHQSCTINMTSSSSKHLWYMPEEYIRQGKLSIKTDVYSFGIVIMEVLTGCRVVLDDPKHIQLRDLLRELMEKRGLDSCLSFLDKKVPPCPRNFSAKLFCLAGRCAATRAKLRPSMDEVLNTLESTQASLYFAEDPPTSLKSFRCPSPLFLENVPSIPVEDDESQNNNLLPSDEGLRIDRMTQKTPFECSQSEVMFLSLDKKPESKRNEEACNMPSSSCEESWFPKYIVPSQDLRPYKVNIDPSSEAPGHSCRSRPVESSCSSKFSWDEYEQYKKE
# Assay Procedure: IRAK-M binding inhibitory activity (KINOMEscan active site-dependent competitive assay)
# Parameters: purchased Eurofins Discover X
# Condition: concentration of the test compound 1 μM; first symbol of cell; read-out: IRAK-M binding inhibition activity % Ctrl
Where a name gives a salt, the structure may show the parent alone.

Look over these answered cases.
                                   compound              assay_readout  endpoint_result
0          c1nc(Nc2ccc3[nH]cnc3c2)c2sccc2n1  remaining binding at 1 µM            ≥ 75%
1  Cc1ccc(NS(=O)(=O)c2ccc(CNC(=O)COCCOc3cc(CN4CCC(Oc5ccnc6ccsc56)CC4)on3)cc2)c2[nH]cc(C#N)c12  remaining binding at 1 µM            < 25%

Now let's try a different one.
Q: Find the recorded remaining binding at 1 µM belonging to c1cc(OC2CCN(Cc3cc(OC[C@@H]4CCCN4)no3)CC2)c2sccc2n1 [Ref. example 10, trihydrochloride] and report it.
Result: < 25%

* * *

# System Name: IRAK-M (Homo sapiens, UniProt Q9Y616)
# Assay Procedure: IRAK-M binding inhibitory activity (KINOMEscan active site-dependent competitive assay)
# Condition: second symbol of cell; read-out: IRAK-M binding inhibition IC50 value
pIC50: −log10 of the molar value.
pIC50 for assorted compounds

Consider the worked cases shown below.
Compound String	Endpoint Result
C=CCOc1cc(CN2CCC(Oc3ccnc4cc(C#N)sc34)CC2)on1	6.52 to 7.00
Cc1ncsc1-c1ccc(CNC(=O)[C@@H]2C[C@@H](O)CN2C(=O)[C@@H](NC(=O)COCCOCCOCCOc2cc(CN3CCC(Oc4ccnc5ccsc45)CC3)on2)C(C)(C)C)cc1	6.00 to 6.52
CN[C@@H](C)C(=O)N[C@H](C(=O)N1CCN(C(=O)c2c(C(=O)NCCOCCOCCOCCOc3cc(CN4CCC(Oc5ccnc6ccsc56)CC4)on3)c3cc(F)c(F)cc3n2C)CC1)C1CCCCC1	6.52 to 7.00

Q: Item Cc1cc2ccc(C(=O)N3CCN(C(=O)CN4C[C@@H](C)NC[C@@H]4COCCOCCOCCOc4cc(CN5CCC(Oc6ccnc7ccsc67)CC5)on4)CC3)cn2c1 has what recorded pIC50?
Result: 6.00 to 6.52

Q: Form field: reported pIC50 of C=CCOc1cc(CN2CCC(Oc3ccnc4ccsc34)CC2)on1
Result: 6.52 to 7.00

Q: Param item = CN[C@@H](C)C(=O)N[C@H](C(=O)N1CCN(C(=O)c2cc3cc(F)ccc3n2CC(=O)N2CCOC[C@H]2COc2cc(CN3CCC(Oc4ccnc5ccsc45)CC3)on2)[C@@H](C)C1)C1CCCCC1 ; retrieve measured pIC50.
Result: 5.52 to 6.00

* * *

# remaining binding at 1 µM listing for each entry below
# System Name: IRAK-M (Homo sapiens, UniProt Q9Y616)
# Assay Procedure: IRAK-M binding inhibitory activity (KINOMEscan active site-dependent competitive assay)
# Parameters: purchased Eurofins Discover X
# Condition: concentration of the test compound 1 μM; first symbol of cell; read-out: IRAK-M binding inhibition activity % Ctrl

Here's what some known entries look like.
Molecule	System Name	Endpoint Result
c1nc(Nc2ccc3cn[nH]c3c2)c2sccc2n1 [Ref. example 28]	IRAK-M (Homo sapiens, UniProt Q9Y616)	50 to 75%
O=C(Cn1cccn1)N1CCC(Oc2ccnc3ccsc23)CC1 [Ref. example 81]	IRAK-M (Homo sapiens, UniProt Q9Y616)	50 to 75%
COc1ccccc1Nc1ncnc2cc(-c3ccccc3)sc12 [Ref. example 13]	IRAK-M (Homo sapiens, UniProt Q9Y616)	≥ 75%
O=S(=O)(C1CC1)N1CCC(Oc2ncnc3ccsc23)CC1 [Ref. example 44]	IRAK-M (Homo sapiens, UniProt Q9Y616)	25 to 50%
Cc1ccccc1S(=O)(=O)N1CCC(Oc2ncnc3ccsc23)CC1 [Ref. example 47]	IRAK-M (Homo sapiens, UniProt Q9Y616)	< 25%

Q: Please look up its remaining binding at 1 µM: O=S1(=O)CCC(Oc2ncnc3cc(I)sc23)CC1 [Ref. example 37]
Result: ≥ 75%

* * *

# System Name: IRAK-M (Homo sapiens, UniProt Q9Y616)
# Assay Procedure: IRAK-M binding inhibitory activity (KINOMEscan active site-dependent competitive assay)
# Parameters: purchased Eurofins Discover X
# Condition: concentration of the test compound 1 μM; first symbol of cell; read-out: IRAK-M binding inhibition activity % Ctrl
The following molecules are shown together with reported remaining binding at 1 µM values.

Reference set, count: 5
Molecule	System Name	Endpoint Result
Cc1ccc(NS(=O)(=O)c2ccc(CNC(=O)COCCOCCOc3cc(CN4CCC(Oc5ccnc6ccsc56)CC4)on3)cc2)c2[nH]cc(C#N)c12 [Example 68]	IRAK-M (Homo sapiens, UniProt Q9Y616)	25 to 50%
Cc1c(CN2CCC(Oc3ccnc4ccsc34)CC2)cnn1C [Ref. example 76]	IRAK-M (Homo sapiens, UniProt Q9Y616)	50 to 75%
Cn1nc(O)cc1CN1CCC(Oc2ccnc3ccsc23)CC1 [Ref. example 68]	IRAK-M (Homo sapiens, UniProt Q9Y616)	25 to 50%
CN[C@@H](C)C(=O)N[C@H](C(=O)N1CCN(C(=O)c2ccc3c(c2)c(F)c(C)n3CCOCCOCCOc2cc(CN3CCC(Oc4ccnc5ccsc45)CC3)on2)CC1)C1CCCCC1 [Example 57]	IRAK-M (Homo sapiens, UniProt Q9Y616)	25 to 50%
c1ccc(Nc2ncnc3cc(-c4ccccc4)sc23)cc1 [Ref. example 12]	IRAK-M (Homo sapiens, UniProt Q9Y616)	≥ 75%

Q: Query (molecule): COc1ccc(Nc2nc(C)nc3cc(C)sc23)cc1OC [Ref. example 66] ; field requested: remaining binding at 1 µM
Result: 50 to 75%
